Values from PubChem BioAssay (NCATS)

tested on: 7G8; test: qHTS profiling for inhibitors of Plasmodium falciparum proliferation (AID 504749); further: nearly all actives have a fitted effect of over 60% in size; conditions: P. falciparum in erythrocytes, SYBR Green DNA, 72 h; series mostly up to 28.7 µM
Results filed as inconclusive are left out. Calls of active or inactive are those of the source. The call rests on the fitted dose curve; in most records, active means well fitted inhibition curve with a large enough effect; inconclusive means small, poorly fitted or top-dose-only effect; inactive means flat fitted curve, though single readings scatter.
Returns: one label drawn from active, inactive

Answered examples (8):
compound: O[C@@H]([C@H](O)[C@H](O)CBr)[C@H](O)CBr
tested-system: 7G8
category: inactive

compound: FC(F)(F)C(F)(F)C(F)(F)C(F)(F)C(F)(F)C(F)(F)F
tested-system: 7G8
category: inactive

compound: CCCCO
tested-system: 7G8
category: inactive

compound: CC(C)=CCC/C(C)=C/CC/C(C)=C/CC/C=C(\C)CC/C=C(\C)CCC=C(C)C
tested-system: 7G8
category: inactive

compound: Cc1ncc[nH]1
tested-system: 7G8
category: inactive

compound: CC(=O)N=c1sc(S(N)(=O)=O)nn1C
tested-system: 7G8
category: inactive

compound: CN1CCC(OC(=O)C(Oc2ccc(Cl)cc2)Oc2ccc(Cl)cc2)CC1
tested-system: 7G8
category: inactive

compound: NCC(O)CC(=O)O (configuration not stated)
tested-system: 7G8
category: inactive

Hello, I am checking results. What call was entered for CC(=O)Oc1cccc(C(=O)O)c1OC(C)=O ?
inactive

Hello, I am checking results. What call was entered for CCCCCc1ccc(C)cc1O ?
active

Hello, I am checking results. What call was entered for CC(C)(CO)[C@@H](O)C(=O)NCCC(=O)NCCSSCCNC(=O)CCNC(=O)[C@H](O)C(C)(C)CO ?
inactive

Hello, I am checking results. What call was entered for O=C(O[C@H]1CN2CCC1CC2)N1CCc2ccccc2[C@@H]1c1ccccc1 ?
active

Hello, I am checking results. What call was entered for N[C@@H](Cc1cc(I)c(Oc2ccc(O)c(I)c2)c(I)c1)C(=O)O ?
active

* * *

Tested on: CP260
Test: qHTS profiling for inhibitors of Plasmodium falciparum proliferation (AID 504749); further: nearly all actives have a fitted effect of over 60% in size
Conditions: P. falciparum in erythrocytes, SYBR Green DNA, 72 h; series mostly up to 28.7 µM
Description: NIH National Institute of Allergy and Infectious Diseases [NIAID] NIH Chemical Genomics Center [NCGC] […] Because mature erythrocytes lack DNA, only Plasmodium-derived DNA is detected. NCGC Assay Protocol Summary: The SYBR Green viability assay was adapted from a method described previously (Plouffe et al., 2008). […] The following morning, fluorescence intensity at 485(14) nm excitation and 535(25) nm emission wavelengths was measured on an EnVision (Perkin Elmer) plate reader. […]
Inconclusive results are not listed. Activity calls are given as the source filed them. Calls follow the shape of the dose curve; as a rule, active = well fitted inhibition curve with a large enough effect; inconclusive = small, poorly fitted or top-dose-only effect; inactive = flat fitted curve, though single readings scatter.
Returns: one label drawn from 1 = active, -1 = inactive

Answered examples (4):
compound: CC(=O)Nc1c(I)c(C(=O)O)c(I)c(N(C)C(C)=O)c1I
category: -1

compound: O=C(O)C1=C(CSc2nnnn2CS(=O)(=O)O)CS[C@@H]2[C@H](NC(=O)[C@H](O)c3ccccc3)C(=O)N12
category: -1

compound: c1ccc(-n2cnnn2)cc1
category: -1

compound: O=C(O)CCCC/C=C(\c1ccccc1)c1cccnc1
category: -1

Hello, I am checking results. What call was entered for CC/C=C\C/C=C\C/C=C\C/C=C\C/C=C\C/C=C\CCC(=O)O ?
-1

Hello, I am checking results. What call was entered for O=C(O)c1ccc(NC(=O)[C@H](Cc2ccc(O)cc2)NC(=O)c2ccccc2)cc1 ?
-1

Hello, I am checking results. What call was entered for CC(C)(C)CC(C)(C)c1ccc(OCCO)cc1 ?
-1

Hello, I am checking results. What call was entered for CC(=O)[C@H]1CC[C@H]2[C@@H]3C=CC4=CC(=O)CC[C@@]4(C)[C@H]3CC[C@]12C ?
-1

Hello, I am checking results. What call was entered for COc1ccc2c(c1)OC(C)(C)C(c1ccccc1)C2c1ccc(OCCN2CCCC2)cc1 (stereo not given) ?
1

Hello, I am checking results. What call was entered for C=CC[C@@H]1/C=C(\C)C[C@H](C)C[C@H](OC)[C@H]2O[C@@](O)(C(=O)C(=O)N3CCCC[C@H]3C(=O)O[C@H](/C(C)=C/[C@@H]3CC[C@@H](O)[C@H](OC)C3)[C@H](C)[C@@H](O)CC1=O)[C@H](C)C[C@@H]2OC ?
1

Hello, I am checking results. What call was entered for CC(CNC(=O)c1cccnc1)NC(=O)c1cccnc1 (stereo not given) ?
-1

Hello, I am checking results. What call was entered for c1ccc2c(c1)Sc1ccccc1N2CCN1CCCC1 ?
1

Hello, I am checking results. What call was entered for O=C(O)CC/C=C\CC[C@@H]1[C@@H](N2CCCCC2)[C@@H](O)C[C@@H]1OCc1ccc(-c2ccccc2)cc1 ?
-1

Hello, I am checking results. What call was entered for CN[C@@H]1[C@H](O[C@H]2[C@H](O[C@H]3[C@H](O)[C@@H](O)[C@H](N=C(N)N)[C@@H](O)[C@@H]3N=C(N)N)O[C@@H](C)[C@]2(O)C=O)O[C@@H](CO)[C@H](O)[C@H]1O ?
-1

Hello, I am checking results. What call was entered for CC(C)c1ncc([N+](=O)[O-])n1C ?
-1

Hello, I am checking results. What call was entered for O=C(O[C@H]1CN2CCC1CC2)N1CCc2ccccc2[C@@H]1c1ccccc1 ?
-1

Hello, I am checking results. What call was entered for CCC(=O)c1ccc2c(c1)N(CCCN1CCN(CCO)CC1)c1ccccc1S2 ?
1

Hello, I am checking results. What call was entered for CCCCCCCCCCCCOCCCN ?
-1

Hello, I am checking results. What call was entered for CN1CCc2c(c3ccccc3n2Cc2ccccc2)C1 ?
-1

Hello, I am checking results. What call was entered for CO ?
-1

* * *

test: Drug repurposing screens with cells derived from glioblastoma tumor samples (AID 1345199); settings: GBM patient neurospheres viability, ATP luminescence, 48 h; at 46 µM (top of the series); tumour line A; further: on the % scale 0 is the no-effect control and ±100 the full control effect; nearly all actives have a fitted effect of over 40% in size
Records with an inconclusive call do not appear. Calls of active or inactive are those of the source. The call rests on the fitted dose curve; in most records, active means well fitted inhibition curve with a large enough effect; inconclusive means small, poorly fitted or top-dose-only effect; inactive means flat fitted curve, though single readings scatter. Where a SMILES comes first, the peptide text is derived from it. [ ]: non-standard residue; d: D form. pGlu = O=C1CC[C@@H](C(=O)O)N1
measured-parameter: activity, negative = cell killing

Past entries and their recorded results:
compound: CCCCC(O)c1ccccc1 (stereo not drawn)
activity, negative = cell killing: -44.5% (inactive)
--
compound: CC1=CCC2CC1C2(C)C (stereo not drawn)
activity, negative = cell killing: -19.4% (inactive)
--
compound: NCCN
activity, negative = cell killing: -28.2% (inactive)
--
compound: OCc1ccccc1
activity, negative = cell killing: -25.4% (inactive)
--
compound: CC[C@H](C)[C@H](NC(=O)[C@H](Cc1ccccc1)NC(=O)[C@H](C)NC(=O)[C@H](CC(=O)O)NC(=O)[C@H](CCCCN)NC(=O)[C@H](CO)NC(=O)[C@@H]1CCCN1C(=O)[C@@H]1CCC(=O)N1)C(=O)NCC(=O)N[C@@H](CC(C)C)C(=O)N[C@@H](CCSC)C(N)=O ([pGlu]PSKDAFIGLM-NH2)
activity, negative = cell killing: -9.58% (inactive)
--
compound: C[C@H](N)C(=O)N[C@@H](C)P(=O)(O)O
activity, negative = cell killing: -15.6% (inactive)
--
compound: CCCc1ccc(C(=O)O)cc1
activity, negative = cell killing: -22.4% (inactive)
--
compound: CN1CCC(OC(=O)C(Oc2ccc(Cl)cc2)Oc2ccc(Cl)cc2)CC1
activity, negative = cell killing: -21% (inactive)
--
compound: CCOC(=O)c1c[nH]c2cc(OCC(C)C)c(OCC(C)C)cc2c1=O
activity, negative = cell killing: -29.7% (inactive)
--
compound: CC(C)CCC[C@@H](C)[C@H]1CC[C@H]2[C@@H]3CC=C4C[C@@H](O)CC[C@]4(C)[C@H]3CC[C@]12C
activity, negative = cell killing: -8.25% (inactive)

Any idea what activity, negative = cell killing was measured for OCCCNc1ccccc1 ?
-52.2% (inactive)

Any idea what activity, negative = cell killing was measured for CCCCC[C@H](O)/C=C/[C@@H]1[C@H]2C/C(=C/CCCC(=O)O)O[C@H]2C[C@H]1O ?
-14.4% (inactive)

Any idea what activity, negative = cell killing was measured for NC(=O)C1c2ccccc2CCc2ccccc21 ?
-34% (inactive)

* * *

tested on: Zika virus NS2B-NS3 protease (linked construct); test: Primary screen NINDS Rhodamine qHTS for Zika virus inhibitors (AID 1347160); conditions: purified NS2B-NS3 protease, Rhodamine110 substrate fluorescence; series mostly up to 57.1 µM; further: nearly all actives have a fitted effect of over 55% in size; further: potency means the concentration at half of the fitted maximal effect
Records with an inconclusive call do not appear. Activity calls are given as the source filed them. Calls follow the shape of the dose curve; as a rule, active = well fitted inhibition curve with a large enough effect; inconclusive = small, poorly fitted or top-dose-only effect; inactive = no such curve, though single readings can be large or run the other way.
measured-parameter: Potency

compound: CCN(CC)CCOCCOC(=O)C(CC)(CC)c1ccccc1
measured-parameter: Potency
value-observed: inactive

compound: CC1CC(OC(=O)C(O)c2ccccc2)CC(C)(C)C1 (stereo unspecified)
measured-parameter: Potency
value-observed: inactive

compound: O=C(O)Cc1cc(I)c(Oc2ccc(O)c(I)c2)c(I)c1
measured-parameter: Potency
value-observed: 3.16 µM (active)

compound: C[C@H]1O[C@@H](O[C@H]2[C@@H](O)C[C@H](O[C@H]3[C@@H](O)C[C@H](O[C@H]4CC[C@@]5(C)[C@H](CC[C@@H]6[C@@H]5C[C@@H](O)[C@]5(C)[C@@H](C7=CC(=O)OC7)CC[C@]65O)C4)O[C@@H]3C)O[C@@H]2C)C[C@H](O)[C@@H]1O
measured-parameter: Potency
value-observed: inactive

Any idea what Potency was measured for C=C1[C@H](CO)[C@@H](O)C[C@@H]1n1cnc2c(=O)[nH]c(N)nc21 ?
inactive

Any idea what Potency was measured for CO[C@H]1C[C@@H]2CC[C@@H](C)[C@@](O)(O2)C(=O)C(=O)N2CCCC[C@H]2C(=O)O[C@H]([C@H](C)C[C@@H]2CC[C@@H](OC(=O)C(C)(CO)CO)[C@H](OC)C2)CC(=O)[C@H](C)/C=C(\C)[C@@H](O)[C@@H](OC)C(=O)[C@H](C)C[C@H](C)/C=C/C=C/C=C/1C ?
inactive
